pKd values by entry
Biological target: T1, mouse tenascin-C rCd4-His-FBG (rat; mouse, UniProt P05540 207-392, limits assumed)
T1 construct: domain: domains 3 and 4; C-terminal FBG fusion; biotinylated in the ELISA screen; also called Mu TNC; mouse TNC rCd4-His-FBG; not shown: 6His tag
T1 sequence (chain (part 1 of 2)): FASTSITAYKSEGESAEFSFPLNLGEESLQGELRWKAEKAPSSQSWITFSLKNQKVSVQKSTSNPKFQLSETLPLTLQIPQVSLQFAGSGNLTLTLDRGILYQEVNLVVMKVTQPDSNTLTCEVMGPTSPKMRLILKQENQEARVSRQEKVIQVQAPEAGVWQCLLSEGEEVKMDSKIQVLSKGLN
T1 sequence (chain (part 2 of 2)): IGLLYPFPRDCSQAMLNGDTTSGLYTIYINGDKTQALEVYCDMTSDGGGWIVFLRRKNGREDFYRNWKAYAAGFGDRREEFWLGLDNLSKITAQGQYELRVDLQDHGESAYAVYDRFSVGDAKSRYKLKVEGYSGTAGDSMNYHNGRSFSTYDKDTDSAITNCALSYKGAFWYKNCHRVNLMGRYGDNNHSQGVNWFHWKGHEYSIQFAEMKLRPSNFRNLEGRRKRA
Test: SPR, captured purified IgG4, 37 C
In plain terms, pKd is the concentration in mol/L turned into minus its base-10 logarithm.

A selection of reference data follows.
160_01_A4 human IgG4 (antibody, V domains shown, human IgG4 with hinge S241P; also called Antibody 160 01 A4 (derived from 2A5)) VH: EVRLVQSGAEVKKPGASVKVSCKVSGYTLTELSMHWVRQAPGKGLEWMGGFDPEDGETIYAQKFQGRVTMTEDTSTDTAYMELSSLRSEDTAVYYCATAQKETLGNAIWGQGTLVTVSS VL: DIQMTQSPASLPTSVGDRVTITCRASQYIQGFLNWYQQKPGKAPRLLIYAASTLQDGVPSRFSGSGYGTDFTLTISSLQPEDFATYYCQQSYSTPWTFGQGTKVEIKR; 8.91
B12 human IgG4 (antibody, V domains shown, human IgG4 with hinge S241P; also called B12 parent; B12-hIgG4) VH: QVQLVESGGGLVQPGRSLRLSCAASGFTFDDYAMHWVRQAPGKGLEWVSGISGSGGSTYYADSVKGRFTISRDNAKNSLYLQMNSLRAEDTALYYCAKDISAVPDTFDIWGQGTMVTVSS VL: DIQMTQSPASLPTPVGDRVTITCRASQYIQGFLNWYQQKPGKAPKLLIYDASNLETGVPSRFSGSGSGTDFTLTISSLQPEDFATYYCQQSYSTPQTFGQGTKVDIKR; 8.35
2A5 human IgG4 (antibody, V domains shown, human IgG4 with hinge S241P; also called 2A5 parent) VH: EVRLVQSGAEVKKPGASVKVSCKVSGYTLTELSMHWVRQAPGKGLEWMGGFDPEDGETIYAQKFQGRVTMTEDTSTDTAYMELSSLRSEDTAVYYCATAQKETYALTYWGQGTLVTVSS VL: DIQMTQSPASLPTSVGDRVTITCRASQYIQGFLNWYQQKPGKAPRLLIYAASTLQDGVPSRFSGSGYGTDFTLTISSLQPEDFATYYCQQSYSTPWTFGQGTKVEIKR; 6.91

From here, focus on the item given below.
Please fill in: pKd reported for 165_13_B1 human IgG4 (antibody, V domains shown, human IgG4 with hinge S241P) VH: QVQLVESGGGLVQPGRSLRLSCAASGFTFDDYAMHWVRQAPGKGLEWVSGISGSGGSTYYADSVKGRFTISRDNAKNSLYLQMNSLRAEDTALYYCAKVMSSMEDAFDIWGQGTMVTVSS VL: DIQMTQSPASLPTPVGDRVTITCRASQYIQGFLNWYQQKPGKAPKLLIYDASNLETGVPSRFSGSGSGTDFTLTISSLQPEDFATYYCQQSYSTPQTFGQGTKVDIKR = 9.02
